Would you mind telling me the reported growth of each entry?
- Test system: SK-MEL-5 melanoma
- method_description: NCI-60 one-dose screen, 48 h (100 = growth as untreated, 0 = no growth, -100 = all killed)
- condition_summary: 10 µM
About 83,000 compounds went through this panel and 20% of them were active in at least one assay; those are over-represented in the sample as a whole.
Please state the figure in %; there is no need to write the unit.

In: What is its growth for SK-MEL-5 melanoma? Entry: O=C(Nc1cc(-c2ccccc2)[nH]n1)c1ccc(Cl)cc1
Out: 87.6

In: What about this molecule? CC1Cc2ccccc2O1 (configuration not stated)
Out: 108

In: What about this molecule? CC(C)OC(=O)c1cc(NC(=S)OC(C)C)ccc1Cl
Out: 44

In: What about this molecule? CCC/C=C(\C)C(C)(C#N)C(=O)OCC (configuration not stated)
Out: 103

In: What about this molecule? CC1CC(O)CC(C)(C)C1 (configuration not stated)
Out: 104

In: What about this molecule? CC1CC(O)C2C3(C)CCCC2(COC3=O)C12CCC1(CCOC1=O)O2 (configuration not stated)
Out: 111

In: What about this molecule? O=C1OC(c2ccc(F)cc2)CC1CN1CCOCC1 (configuration not stated)
Out: 104

In: What about this molecule? C=CCOC(=O)C(=O)OCC=C
Out: 98.8

In: What about this molecule? CC(=O)NC(N)=S
Out: 107

In: What about this molecule? CCN(CC)c1ccc2nc3ccc(=[N+](CC)CC)cc-3oc2c1
Out: -53.4

In: What about this molecule? CC(=O)OCCO
Out: 102

In: What about this molecule? O=S(=O)(O)c1ccc(O)c2ccccc12
Out: 114
